- Tested on: Jurkat
- experiment summary: mean cell size (FSC-A) relative to DMSO control (fraction of control); higher = larger cells
- experimental parameters: 48 h
Structures can show the parent of a compound that is named as a salt.
measurement name: mean cell size
A bare number is all that is needed in reply.

Observe how each entry below is paired with its result.
compound	mean cell size
CC[C@H]1OC(=O)[C@H](C)[C@@H](O[C@H]2C[C@@](C)(OC)[C@@H](O)[C@H](C)O2)[C@H](C)[C@@H](O[C@@H]2O[C@H](C)C[C@H](N(C)C)[C@H]2O)[C@](C)(O)C[C@@H](C)C(=O)[C@H](C)[C@@H](O)[C@]1(C)O [Erythromycin] (concentration: 25 µM)	0.97
CC(C(=O)O)c1cccc(C(=O)c2ccccc2)c1 (stereo unspecified) [Ketoprofen] (concentration: 25 µM)	0.929
NNCCc1ccccc1 [Phenelzine Sulfate] (concentration: 25 µM)	0.942
CC(=O)OCC(CCn1cnc2cnc(N)nc21)COC(C)=O [Famciclovir] (concentration: 25 µM)	0.925
CN1C2CCCC1CC(NC(=O)c1nn(C)c3ccccc13)C2 (stereo unspecified) [Granisetron·HCl] (concentration: 25 µM)	0.969

Q) Using known records, supply mean cell size for CN(C)CCC(c1ccc(Br)cc1)c1ccccn1 (stereo unspecified) [Brompheniramine Maleate] (concentration: 25 µM)
A) 0.946
